- test-system: SRSF1 RRM1+2 (ASF/SF2) (UniProt Q07955 1-196)
- Sequence (Q07955 1-196): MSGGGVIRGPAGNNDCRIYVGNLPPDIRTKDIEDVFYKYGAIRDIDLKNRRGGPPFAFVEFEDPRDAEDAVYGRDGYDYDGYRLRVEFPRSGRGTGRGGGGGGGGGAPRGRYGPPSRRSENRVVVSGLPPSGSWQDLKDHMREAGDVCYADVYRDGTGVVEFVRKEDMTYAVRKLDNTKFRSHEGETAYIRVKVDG
- assay-explanation: competition
pKd: −log10 of the molar value.
metric-name: pKd

Challenge: Which pKd value belongs to AAAAUUAAAAUUAAAAUUAAAAUU (ssRNA) [(A4U2)4 unlabeled] ?
Response given: ~6.70
